Reference source for all entries: the supplement of paper PMC7455731

molecules and their reported collision cross section
Test: collision cross section (DTIM-MS, N2); higher = larger ion
Conditions: ion adduct: [M-H]-

molecule: CC(=O)Nc1nnc(S(N)(=O)=O)s1 [Acetazolamide]
units: Å²
collision cross section: 138.64

molecule: CC(C)=CCC[C@](C)(O)[C@H]1CC[C@]2(C)[C@@H]1[C@H](O)C[C@@H]1[C@@]3(C)CC[C@H](O)C(C)(C)[C@@H]3[C@@H](O[C@@H]3O[C@H](CO)[C@@H](O)[C@H](O)[C@H]3O)C[C@]12C [Ginsenoside Rh1]
units: Å²
collision cross section: 266.62

molecule: Cc1cc(=O)oc2cc(O)cc(O)c12 [5,7-Dihydroxy-4-methylcoumarin]
units: Å²
collision cross section: 135.28

molecule: C[C@@H]1O[C@@H](Oc2c(-c3cc(O)c(O)c(O)c3)oc3cc(O)cc(O)c3c2=O)[C@H](O)[C@H](O)[C@H]1O [Myricitrin]
units: Å²
collision cross section: 199.23

molecule: CCOc1cc(NC(C)=O)ccc1C(=O)OC [Ethopabate]
units: Å²
collision cross section: 158.16

molecule: CC1CCC=C2C(=O)CC3OOC(C)(C)C3C21C (stereo not given) [Nardosinone]
units: Å²
collision cross section: 156.3

molecule: CO[C@H]1C=CO[C@@]2(C)Oc3c(C)c(O)c4c(O)c(c(/C=N/N5CCN(C)CC5)c(O)c4c3C2=O)NC(=O)/C(C)=C\C=C/[C@H](C)[C@H](O)[C@@H](C)[C@@H](O)[C@@H](C)[C@H](OC(C)=O)[C@@H]1C [Rifampicin]
units: Å²
collision cross section: 284.94

molecule: NC(=O)c1ccccc1O [Salicylamide]
units: Å²
collision cross section: 122.43

molecule: Cc1noc(NS(=O)(=O)c2ccc(N)cc2)c1C [Sulfisoxazole]
units: Å²
collision cross section: 162.87

molecule: CCOC(=O)c1ccc(O)c(OC)c1 [Ethyl Vanillate]
units: Å²
collision cross section: 144.12

molecule: COC(=O)c1cc(OC)c(O)c(OC)c1 [Methyl syringate]
units: Å²
collision cross section: 146.35

molecule: CCC(C)(C)C(=O)O[C@H]1C[C@@H](C)C=C2C=C[C@H](C)[C@H](CC[C@@H]3C[C@@H](O)CC(=O)O3)[C@H]21 [Simvastatin]
units: Å²
collision cross section: 205.74

molecule: COc1ccc(C=CC(=O)c2c(O)cc(OC)cc2OC)cc1 [Flavokawain A]
units: Å²
collision cross section: 184.75

molecule: O=C1C[C@@H](c2ccc(O)cc2)Oc2cc(O)ccc21 [Liquiritigenin]
units: Å²
collision cross section: 161.75

molecule: CC(C)=CCC[C@](C)(O[C@@H]1O[C@H](CO)[C@@H](O)[C@H](O)[C@H]1O)[C@H]1CC[C@]2(C)[C@@H]1[C@H](O)C[C@@H]1[C@@]3(C)CC[C@H](O)C(C)(C)[C@@H]3[C@@H](O)C[C@]12C [Ginsenoside F1]
units: Å²
collision cross section: 259.18

molecule: CCOc1cc(C=O)ccc1O [Ethyl vanillin]
units: Å²
collision cross section: 133.69

molecule: Nc1nc2c(ncn2COCCO)c(=O)[nH]1 [Aciclovir]
units: Å²
collision cross section: 148.31

molecule: O=C(C=Cc1ccc(O)c(O)c1)OC1CC(O)(C(=O)O)CC(O)C1OC(=O)C=Cc1ccc(O)c(O)c1 (stereo not given) [4,5-Dicaffeoylquinic acid]
units: Å²
collision cross section: 213.46

molecule: COc1ccc(CC2c3cc(Oc4cc(CC5c6cc(OC)c(OC)cc6CCN5C)ccc4O)c(OC)cc3CCN2C)cc1 (stereo not given) [Neferine]
units: Å²
collision cross section: 252.96

molecule: CNC[C@H](O)[C@@H](O)[C@H](O)[C@H](O)CO [Meglumine]
units: Å²
collision cross section: 139.8
